Value source: patent US20030068675

- targetUnderTest: T1, ZFP SBS#434 (synthetic)
- T1 chain: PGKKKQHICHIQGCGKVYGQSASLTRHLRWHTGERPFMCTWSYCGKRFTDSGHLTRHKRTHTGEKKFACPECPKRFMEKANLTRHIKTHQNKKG
- assayRemarks: EMSA
- conditionSet: tags: MBP fusion
measurementLabel: Kd (nM)
The reply should be a number in nM, with the unit left off.

According to the records, this binder GACGGCGTA (dsDNA) DNA 1: GACGGCGTA DNA 2: TACGCCGTC displays Kd of 152
